These entries and their values trace back to ChEMBL document CHEMBL1140740.

target: UniProt:Q13705
Sequence (Q13705 whole entry): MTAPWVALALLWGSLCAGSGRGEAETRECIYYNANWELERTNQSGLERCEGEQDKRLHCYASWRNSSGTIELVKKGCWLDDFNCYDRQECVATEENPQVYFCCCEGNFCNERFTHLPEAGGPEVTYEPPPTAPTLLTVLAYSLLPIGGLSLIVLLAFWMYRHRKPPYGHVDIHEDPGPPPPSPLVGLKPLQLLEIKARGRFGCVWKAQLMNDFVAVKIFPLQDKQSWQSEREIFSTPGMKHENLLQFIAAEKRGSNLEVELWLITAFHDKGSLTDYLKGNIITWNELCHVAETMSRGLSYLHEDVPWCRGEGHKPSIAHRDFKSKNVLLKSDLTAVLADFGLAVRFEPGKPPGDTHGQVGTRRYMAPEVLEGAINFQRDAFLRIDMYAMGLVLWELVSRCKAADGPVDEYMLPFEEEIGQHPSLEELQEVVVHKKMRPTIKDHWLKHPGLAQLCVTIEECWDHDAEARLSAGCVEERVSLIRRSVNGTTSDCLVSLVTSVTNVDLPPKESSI
Measured Quantity: IC50

Given the entry Oc1cc(O)c(-c2noc3ccc(NCCN4CCOCC4)cc23)cc1Cl , report its measured IC50. > 20 µM

====

target: Inhibitor of nuclear factor kappa-B kinase subunit beta (Homo sapiens); assay: Inhibition of IKK2
Sequence (O14920 whole entry): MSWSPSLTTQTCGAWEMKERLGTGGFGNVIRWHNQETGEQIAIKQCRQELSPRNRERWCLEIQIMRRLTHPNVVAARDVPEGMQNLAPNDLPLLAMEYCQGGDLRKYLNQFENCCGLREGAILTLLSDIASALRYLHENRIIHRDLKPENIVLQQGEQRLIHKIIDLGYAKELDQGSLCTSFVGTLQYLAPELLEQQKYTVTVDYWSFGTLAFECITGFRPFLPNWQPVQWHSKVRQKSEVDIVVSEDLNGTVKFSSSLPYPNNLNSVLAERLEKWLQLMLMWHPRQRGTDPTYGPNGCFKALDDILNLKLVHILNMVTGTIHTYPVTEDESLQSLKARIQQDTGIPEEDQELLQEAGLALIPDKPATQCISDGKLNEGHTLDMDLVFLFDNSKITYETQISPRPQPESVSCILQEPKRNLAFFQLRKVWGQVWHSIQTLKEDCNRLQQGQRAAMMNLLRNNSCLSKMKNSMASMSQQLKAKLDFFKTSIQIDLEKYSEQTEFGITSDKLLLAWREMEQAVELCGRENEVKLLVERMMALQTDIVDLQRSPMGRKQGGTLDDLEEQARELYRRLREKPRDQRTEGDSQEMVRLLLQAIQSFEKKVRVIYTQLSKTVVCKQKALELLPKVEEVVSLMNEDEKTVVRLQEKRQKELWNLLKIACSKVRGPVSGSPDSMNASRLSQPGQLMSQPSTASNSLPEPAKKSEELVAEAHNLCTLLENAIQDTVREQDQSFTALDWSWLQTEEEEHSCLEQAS
pIC50: −log10 of the molar value.
Measured Quantity: pIC50

Given the entry Oc1cc(O)c(-c2noc3ccc(NCCN4CCOCC4)cc23)cc1Cl , report its measured pIC50. < 4.70

====

target: MAP kinase-activated protein kinase 2 (Homo sapiens); assay: Inhibition of MK2
Sequence (P49137 whole entry): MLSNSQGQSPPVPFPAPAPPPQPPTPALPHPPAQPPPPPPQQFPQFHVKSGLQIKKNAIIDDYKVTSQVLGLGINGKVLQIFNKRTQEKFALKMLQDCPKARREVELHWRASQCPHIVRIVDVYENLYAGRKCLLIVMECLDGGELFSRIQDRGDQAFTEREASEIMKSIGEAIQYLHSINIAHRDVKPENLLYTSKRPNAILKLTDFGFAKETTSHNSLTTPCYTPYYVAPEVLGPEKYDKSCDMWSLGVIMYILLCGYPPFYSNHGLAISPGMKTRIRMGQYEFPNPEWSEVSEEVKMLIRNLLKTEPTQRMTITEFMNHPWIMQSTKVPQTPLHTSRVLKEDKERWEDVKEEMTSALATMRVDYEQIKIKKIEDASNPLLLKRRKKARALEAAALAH
Measured Quantity: IC50

Given the entry Oc1cc(O)c(-c2noc3ccc(NCCN4CCOCC4)cc23)cc1Cl , report its measured IC50. > 20 µM

====

Observed IC50 values for Heat shock protein HSP 90-alpha (Homo sapiens, UniProt P07900) are listed in what follows.
Field: numeric (nM). Do not append units.

CN1CCN(c2ccc3onc(-c4cc(Cl)c(O)cc4O)c3c2)CC1 | 800
Oc1ccc2c(-c3cc(Cl)c(O)cc3O)noc2c1 | 60

Next compound, please.
Given the entry Oc1cc(O)c(-c2noc3ccc(NCCN4CCOCC4)cc23)cc1Br , report its measured IC50. 40

====

molecular target: Phosphatidylinositol 4,5-bisphosphate 3-kinase catalytic subunit alpha isoform (Homo sapiens, UniProt P42336); experiment: Inhibition of P13K alpha
Sequence (P42336 whole entry, canonical isoform): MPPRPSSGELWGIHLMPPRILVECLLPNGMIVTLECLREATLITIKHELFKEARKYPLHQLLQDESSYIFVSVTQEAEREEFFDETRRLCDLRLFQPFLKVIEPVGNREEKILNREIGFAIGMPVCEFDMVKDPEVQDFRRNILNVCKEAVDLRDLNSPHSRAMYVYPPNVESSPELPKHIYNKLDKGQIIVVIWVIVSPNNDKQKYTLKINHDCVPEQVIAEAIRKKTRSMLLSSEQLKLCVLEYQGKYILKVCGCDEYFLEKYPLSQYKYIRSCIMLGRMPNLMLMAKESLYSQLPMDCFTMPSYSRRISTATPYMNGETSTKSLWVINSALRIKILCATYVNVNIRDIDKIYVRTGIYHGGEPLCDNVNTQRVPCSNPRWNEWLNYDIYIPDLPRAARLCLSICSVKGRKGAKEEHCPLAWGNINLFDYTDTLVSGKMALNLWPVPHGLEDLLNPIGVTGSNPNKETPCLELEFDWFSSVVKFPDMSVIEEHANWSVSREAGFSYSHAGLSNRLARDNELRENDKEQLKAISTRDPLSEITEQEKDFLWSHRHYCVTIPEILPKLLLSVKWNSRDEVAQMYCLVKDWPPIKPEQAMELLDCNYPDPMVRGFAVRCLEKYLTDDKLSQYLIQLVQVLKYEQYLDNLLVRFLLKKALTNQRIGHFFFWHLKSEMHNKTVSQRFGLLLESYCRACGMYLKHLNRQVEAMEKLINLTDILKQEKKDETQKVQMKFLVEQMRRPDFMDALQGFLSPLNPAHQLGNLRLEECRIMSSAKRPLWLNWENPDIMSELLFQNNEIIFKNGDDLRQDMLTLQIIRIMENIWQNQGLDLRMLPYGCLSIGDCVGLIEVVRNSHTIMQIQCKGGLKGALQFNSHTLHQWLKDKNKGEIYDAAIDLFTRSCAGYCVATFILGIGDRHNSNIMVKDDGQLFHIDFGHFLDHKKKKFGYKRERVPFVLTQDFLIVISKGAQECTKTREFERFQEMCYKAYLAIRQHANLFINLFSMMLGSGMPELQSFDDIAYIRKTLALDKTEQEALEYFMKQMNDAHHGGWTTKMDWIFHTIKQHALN
Measured Quantity: IC50

Given the entry Oc1cc(O)c(-c2noc3ccc(NCCN4CCOCC4)cc23)cc1Cl , report its measured IC50. > 20 µM

====

target: Serine/threonine-protein kinase B-raf (Homo sapiens, UniProt P15056)
Sequence (P15056 whole entry): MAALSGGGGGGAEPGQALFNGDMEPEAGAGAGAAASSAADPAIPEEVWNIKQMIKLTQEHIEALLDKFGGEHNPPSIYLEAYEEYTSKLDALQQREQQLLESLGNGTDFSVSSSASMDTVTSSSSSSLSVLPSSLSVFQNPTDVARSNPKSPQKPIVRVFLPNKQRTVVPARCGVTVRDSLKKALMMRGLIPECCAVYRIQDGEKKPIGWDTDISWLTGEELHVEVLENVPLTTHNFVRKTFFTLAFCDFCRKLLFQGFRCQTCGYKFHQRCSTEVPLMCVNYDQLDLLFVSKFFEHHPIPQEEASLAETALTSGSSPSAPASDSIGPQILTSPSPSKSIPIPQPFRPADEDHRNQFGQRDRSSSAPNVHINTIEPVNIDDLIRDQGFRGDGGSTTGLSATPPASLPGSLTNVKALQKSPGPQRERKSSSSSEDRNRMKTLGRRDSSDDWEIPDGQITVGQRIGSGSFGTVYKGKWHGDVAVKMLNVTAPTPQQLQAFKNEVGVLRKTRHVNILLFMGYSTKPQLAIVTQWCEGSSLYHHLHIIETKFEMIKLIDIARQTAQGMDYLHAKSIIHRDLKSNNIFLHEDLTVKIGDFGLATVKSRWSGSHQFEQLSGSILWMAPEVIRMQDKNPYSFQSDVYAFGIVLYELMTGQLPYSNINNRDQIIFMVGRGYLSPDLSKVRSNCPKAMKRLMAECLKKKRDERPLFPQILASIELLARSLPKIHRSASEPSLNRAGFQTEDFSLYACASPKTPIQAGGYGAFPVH
Measured Quantity: IC50

Lookup: IC50 / Serine/threonine-protein kinase B-raf (Homo sapiens, UniProt P15056) / Oc1cc(O)c(-c2noc3ccc(NCCN4CCOCC4)cc23)cc1Cl > 20 µM

====

system: LNCaP; assay: Antiproliferation activity against human LnCap cells; assay type: functional, cell-based
Measured Quantity: IC50 (nM)
Field: numeric (nM). Do not append units.

Given the entry Oc1cc(O)c(-c2noc3ccc(NCCN4CCOCC4)cc23)cc1Cl , report its measured IC50. 170

====

Target sequence: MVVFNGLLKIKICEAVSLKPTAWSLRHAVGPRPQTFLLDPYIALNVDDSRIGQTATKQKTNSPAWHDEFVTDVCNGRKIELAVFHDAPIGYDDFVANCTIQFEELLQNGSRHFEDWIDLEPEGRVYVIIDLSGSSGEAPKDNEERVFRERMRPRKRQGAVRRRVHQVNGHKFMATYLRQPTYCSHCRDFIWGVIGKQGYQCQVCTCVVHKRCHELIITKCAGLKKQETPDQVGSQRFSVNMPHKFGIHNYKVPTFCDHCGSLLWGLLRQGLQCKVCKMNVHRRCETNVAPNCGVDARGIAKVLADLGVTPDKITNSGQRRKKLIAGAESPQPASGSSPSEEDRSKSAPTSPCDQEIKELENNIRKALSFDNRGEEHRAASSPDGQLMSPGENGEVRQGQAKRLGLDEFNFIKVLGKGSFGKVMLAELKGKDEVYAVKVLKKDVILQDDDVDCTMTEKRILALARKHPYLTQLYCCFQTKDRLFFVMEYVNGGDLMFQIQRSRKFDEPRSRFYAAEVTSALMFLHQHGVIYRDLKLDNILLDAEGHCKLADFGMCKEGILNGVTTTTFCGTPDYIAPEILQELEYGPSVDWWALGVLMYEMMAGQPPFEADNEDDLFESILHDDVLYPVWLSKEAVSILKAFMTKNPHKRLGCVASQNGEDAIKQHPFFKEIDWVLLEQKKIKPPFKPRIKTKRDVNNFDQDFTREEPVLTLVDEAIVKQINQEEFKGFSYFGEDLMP
pIC50: −log10 of the molar value.
Measured Quantity: pIC50

Given the entry Oc1cc(O)c(-c2noc3ccc(NCCN4CCOCC4)cc23)cc1Cl , report its measured pIC50. < 4.70
